# study_target: T1, EsCas13d, nuclease-dead (Eubacterium siraeum, UniProt B0MS50, R295A;H300A;R849A;H854A)
# T1 sequence: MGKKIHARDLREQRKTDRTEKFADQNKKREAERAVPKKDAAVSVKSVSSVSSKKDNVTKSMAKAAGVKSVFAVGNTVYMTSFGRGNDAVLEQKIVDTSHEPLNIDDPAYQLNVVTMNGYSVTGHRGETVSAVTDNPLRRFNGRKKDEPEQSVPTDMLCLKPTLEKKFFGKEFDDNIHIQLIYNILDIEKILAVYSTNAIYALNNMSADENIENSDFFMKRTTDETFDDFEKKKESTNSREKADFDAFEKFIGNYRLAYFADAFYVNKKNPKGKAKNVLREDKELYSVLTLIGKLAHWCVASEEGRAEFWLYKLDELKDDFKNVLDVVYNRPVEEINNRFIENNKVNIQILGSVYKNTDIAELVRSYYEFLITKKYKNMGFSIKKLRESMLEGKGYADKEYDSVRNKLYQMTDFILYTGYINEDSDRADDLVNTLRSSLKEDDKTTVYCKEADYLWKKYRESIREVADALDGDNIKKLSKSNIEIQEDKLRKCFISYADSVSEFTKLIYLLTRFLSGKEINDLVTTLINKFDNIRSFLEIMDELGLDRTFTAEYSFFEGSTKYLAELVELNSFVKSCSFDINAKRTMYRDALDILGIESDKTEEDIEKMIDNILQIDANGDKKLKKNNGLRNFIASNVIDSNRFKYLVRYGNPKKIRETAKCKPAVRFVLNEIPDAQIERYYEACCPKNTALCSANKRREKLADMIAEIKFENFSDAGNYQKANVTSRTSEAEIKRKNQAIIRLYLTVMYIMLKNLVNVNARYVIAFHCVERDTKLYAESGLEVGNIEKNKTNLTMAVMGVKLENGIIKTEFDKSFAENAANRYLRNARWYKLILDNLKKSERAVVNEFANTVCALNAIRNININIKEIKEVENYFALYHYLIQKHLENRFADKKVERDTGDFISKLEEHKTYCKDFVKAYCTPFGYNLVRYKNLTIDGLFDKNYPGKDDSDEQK
# protocol_description: crRNA (strand 1, pre-loaded); Mg2+; 40 mM Tris-HCl pH 7.5, 150 mM NaCl, 6 mM MgCl2, 1 mM DTT, 0.1% Tween-20, 0.2 mg/ml BSA; 25 C; 10 min per concentration, then washed
# condition_label: tags: His6-TwinStrep-SUMO cleaved; N-terminal SNAP kept (SNAP-Surface 488); label: 3' end held by stalled T7 RNA polymerase
Each record is given 1 if its reported Kd is strictly below 20 nM. Records at or above 20 nM are given -1.

Here are 2 binders together with their reported answers.
binder	discrete_label
target 3 insA 3' of 21,insG 3' of 2 (mixed) RNA 1: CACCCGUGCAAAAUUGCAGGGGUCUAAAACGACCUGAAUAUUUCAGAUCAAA RNA 2: GGGAAUGGAUCCACAUCUACGAAUUCGUUUUAUGAUCUGAAAUAUUCAGGUGCUGCAGAUCGGAAGAGCACACGU	-1
target 2 MT 5'PFS ACU 3'PFS CUU (mixed) RNA 1: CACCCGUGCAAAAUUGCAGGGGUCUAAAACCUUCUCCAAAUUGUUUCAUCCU RNA 2: GGGAAUGGAUCCACAUCUACGAAUUCACUAGGAUGAAACAAUUUGGAGAAGCUUAGAUCGGAAGAGCACACGU	1

stdin: Hello, I'm reviewing records and need to know if Kd of target 3 U2A,G3C (mixed) RNA 1: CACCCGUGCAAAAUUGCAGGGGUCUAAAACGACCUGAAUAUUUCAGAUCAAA RNA 2: GGGAAUGGAUCCACAUCUACGAAUUCGUUUUUGAUCUGAAAUAUUCAGCACUGCAGAUCGGAAGAGCACACGU is below 20 nM. Could you check?
stdout: -1

stdin: Hello, I'm reviewing records and need to know if Kd of target 1 MT 5'PFS CUU 3'PFS UCU (mixed) RNA 1: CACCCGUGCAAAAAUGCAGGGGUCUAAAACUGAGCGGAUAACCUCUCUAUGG RNA 2: GGGAAUGGAUCCACAUCUACGAAUUCCUUCCAUAGAGAGGUUAUCCGCUCAUCUAGAUCGGAAGAGCACACGU is below 20 nM. Could you check?
stdout: -1

stdin: Hello, I'm reviewing records and need to know if Kd of target 3 C1U,U22A (mixed) RNA 1: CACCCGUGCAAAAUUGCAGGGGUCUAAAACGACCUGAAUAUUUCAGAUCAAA RNA 2: GGGAAUGGAUCCACAUCUACGAAUUCGUUAUUGAUCUGAAAUAUUCAGGUUUGCAGAUCGGAAGAGCACACGU is below 20 nM. Could you check?
stdout: -1

stdin: Hello, I'm reviewing records and need to know if Kd of target 2 MT 5'PFS UGA 3'PFS UCG (mixed) RNA 1: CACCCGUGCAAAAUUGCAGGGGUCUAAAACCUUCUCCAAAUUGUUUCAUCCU RNA 2: GGGAAUGGAUCCACAUCUACGAAUUCUGAAGGAUGAAACAAUUUGGAGAAGUCGAGAUCGGAAGAGCACACGU is below 20 nM. Could you check?
stdout: 1

stdin: Hello, I'm reviewing records and need to know if Kd of target 2 MT 5'PFS CGG 3'PFS UUU (mixed) RNA 1: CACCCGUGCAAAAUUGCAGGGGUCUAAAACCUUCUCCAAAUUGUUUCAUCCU RNA 2: GGGAAUGGAUCCACAUCUACGAAUUCCGGAGGAUGAAACAAUUUGGAGAAGUUUAGAUCGGAAGAGCACACGU is below 20 nM. Could you check?
stdout: 1

stdin: Hello, I'm reviewing records and need to know if Kd of target 2 MT 5'PFS GUG 3'PFS ACC (mixed) RNA 1: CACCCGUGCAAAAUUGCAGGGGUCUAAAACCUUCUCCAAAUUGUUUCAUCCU RNA 2: GGGAAUGGAUCCACAUCUACGAAUUCGUGAGGAUGAAACAAUUUGGAGAAGACCAGAUCGGAAGAGCACACGU is below 20 nM. Could you check?
stdout: -1
